System: Proteus mirabilis
test: MIC against Gram-negative bacteria: Proteus mirabilis
Assay type: cell-based
assay context: Proteus mirabilis; 5×10^5 CFU/mL; 10 h cultivation at 37° C.
The entries below come with measured MIC against P. mirabilis values attached.
recorded metric: MIC against P. mirabilis (µg/mL)

{"columns": ["substance", "experimental system", "recorded metric", "value"],
 "data": [
  ["PRT1385 (GVRSCPGDCNQRGRCEDGRCVCWPGYTGTDC; listed as Homo sapiens)", "Proteus mirabilis", "MIC against P. mirabilis", 12.5],
  ["PRT1376 (ATRMCPADCRGRGRCVQGVCLCHVGYGGEDCG; listed as Homo sapiens)", "Proteus mirabilis", "MIC against P. mirabilis", 50],
  ["PRT1485 (DVNECRRPLERRVCHHSCHNTVGSFLCTCRPGFRLRADRVSCE; listed as Homo sapiens)", "Proteus mirabilis", "MIC against P. mirabilis", 12.5],
  ["PRT1408 (NEICSVDCGSHGVCMGGTCRCEEGWTGPACNQ; listed as Homo sapiens)", "Proteus mirabilis", "MIC against P. mirabilis", 12.5]
]}

* * *

Tested on: Enterobacter cloacae
test: MIC against Gram-negative bacteria: Enterobacter cloacae
Type: cell-based
assay context: Enterobacter cloacae; 96-well plate, 5×10^5 CFU/mL, 37° C., 10 h

{"columns": ["substance", "MIC against E. cloacae"],
 "data": [
  ["PRT1268 (CAVNNGGCDRTCKDTSTGVHCSCPVGFTLQLDGKTC; listed as Homo sapiens)", "25 µg/mL"],
  ["PRT1309 (EVDPCAHGHGGCSPHANCTKVAPGQRTCTCQDGYMGDGELCQ; listed as Homo sapiens)", "12.5 µg/mL"],
  ["PRT1273 (DVDECEREDNAGCVHDCVNIPGNYRCTCYDGFHLAHDGHNCL; listed as Homo sapiens)", "12.5 µg/mL"]
]}

* * *

Test system: Proteus vulgaris
test: MIC against Gram-negative bacteria: Proteus vulgaris
Type: cell-based
assay context: P. vulgaris; 10 h cultivation at 37° C.; 5×10^5 CFU/mL
Protocol: 1. Gram-negative bacteria, such as E. coli BL21, Pseudomonas aeruginosa, Klebsiella pneumonia, Enterobacter cloacae, Aeromonas hydrophila, Citrobacter diversus, Moraxella catarrhalis, Proteus mirabilis, Proteus vulgaris, Serratia marcescens, etc were streaked on solid LB medium and cultured respectively. Then, typical clones were picked, inoculated into common liquid LB medium respectively, and cultured at 37° C. with shaking at 185 rpm until the McFarland specific turbidity was 0.5. […]

{"columns": ["substance", "experimental system", "MIC (μg/mL) P. vulgaris (µg/mL)"],
 "data": [
  ["PRT811 (FGKNCSFSCSCQNGGTCDSVTGACRCPPGVSGTNCE; listed as Homo sapiens)", "Proteus vulgaris", 25],
  ["PRT197 (LGYDCTTDKCNDRGVCNNKKHCHCSASYLPPDCS; listed as Homo sapiens)", "Proteus vulgaris", 12.5],
  ["PRT796 (SGDFCIPLCTEECVHGRCVSPDTCHCEPGWGGPDCS; listed as Homo sapiens)", "Proteus vulgaris", 50],
  ["PRT261 (CAHGHGGCSPHANCTKVAPGQRTCTCQDGYMGDGELC; listed as Homo sapiens)", "Proteus vulgaris", 12.5],
  ["PRT172 (CADGPCFNGGRCSDSPDGGYSCRCPVGYSGFNC; listed as Homo sapiens)", "Proteus vulgaris", 12.5],
  ["PRT887 (LNDACISNPCNEGSNCDTNPVNGKAICTCPSGYTGPACS; listed as Homo sapiens)", "Proteus vulgaris", 12.5],
  ["PRT840 (GSARCGSGGPGSCPVPQECVPQDGAAGAGLCRCPQGWAGPHCR; listed as Homo sapiens)", "Proteus vulgaris", 25],
  ["PRT803 (HGKGCQLPCQCRHGASCDPRAGECLCAPGYTGVYCE; listed as Homo sapiens)", "Proteus vulgaris", 12.5]
]}

These entries and their values trace back to patent US9833497B2.
